Tested on: HCT-116
Experiment: LDH release assay
Assay type: cell-based
Conditions: Homo sapiens, HCT-116, 24 h
METRIC_NAME: pEC50
In textbook form, pEC50 equals minus log to base ten of the concentration in mol/L.

Entry "CC(C)(C)[C@H](c1nc(-c2cc(F)ccc2F)cn1Cc1ccccc1)N(CC[C@H](N)CF)C(=O)CO" ; pEC50 = 10.22

---

Assay: In vivo pharmacokinetic parameters (clearance, half-life, AUC)
Conditions: read-out: In vivo Clearance rate
METRIC_NAME: clearance (mL/min/kg)
A number alone suffices; assume mL/min/kg.

Entry "CC(C)(C)[C@H](c1nc(-c2cc(F)ccc2F)cn1Cc1ccccc1)N(CC[C@H](N)CF)C(=O)CO" ; clearance = 41

Entry "COCC(=O)N(CC[C@H](N)CF)[C@@H](c1nc(-c2cc(F)ccc2F)cn1Cc1ccccc1)C(C)(C)C" ; clearance = 29

Entry "CC(=O)N(CC[C@H](N)CF)[C@@H](c1nc(-c2cc(F)ccc2F)cn1Cc1ccccc1)C(C)(C)C" ; clearance = 94

Entry "C[C@H](O)C(=O)N(CC[C@H](N)CF)[C@@H](c1nc(-c2cc(F)ccc2F)cn1Cc1ccccc1)C(C)(C)C" ; clearance = 47
